Target: T1, human IL-36R (human, UniProt Q9HB29 20-575)
T1 sequence (looked up): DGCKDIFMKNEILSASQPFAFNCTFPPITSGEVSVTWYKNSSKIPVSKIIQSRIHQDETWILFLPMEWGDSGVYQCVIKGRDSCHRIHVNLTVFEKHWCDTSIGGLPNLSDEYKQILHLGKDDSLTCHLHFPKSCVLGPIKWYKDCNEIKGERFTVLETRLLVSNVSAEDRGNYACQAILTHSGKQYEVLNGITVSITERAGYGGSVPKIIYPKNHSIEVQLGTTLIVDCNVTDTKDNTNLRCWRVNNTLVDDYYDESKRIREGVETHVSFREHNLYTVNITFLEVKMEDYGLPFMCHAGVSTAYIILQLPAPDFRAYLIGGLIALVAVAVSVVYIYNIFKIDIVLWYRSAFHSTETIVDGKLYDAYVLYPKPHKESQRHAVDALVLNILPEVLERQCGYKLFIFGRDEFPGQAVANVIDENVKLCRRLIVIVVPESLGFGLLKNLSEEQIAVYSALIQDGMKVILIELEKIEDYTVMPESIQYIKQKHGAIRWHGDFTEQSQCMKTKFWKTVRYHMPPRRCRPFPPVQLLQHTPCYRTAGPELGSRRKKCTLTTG
Experiment: cell-based or functional assay
Measured attribute: IC50 of GM-CSF release, NCI/ADR-RES cells stimulated with IL-36α

Query: Entry under review: humanized anti-IL-36R antibody 900534 (antibody, V domains shown, IgG1 (vector with L234A, L235A) and human kappa) VH: QVQLVQSGAEVKKPGASVKVSCKASGYTFTSSWMHWAKQAPGQGLEWIGEIHPNSAKTNYNQKFQGRVTMTRDTSISTAYMELSRLRSDDTAVYYCARVDYGKPWFAYWGQGTLVTVSS VL: QIVLTQSPGTLSLSPGERATLSCRASSSVSSSYLHWYQQKPGQAPRLLIYSTSSRATGIPDRFSGSGSGTDFTLTISRLEPEDFATYYCQQFQSSPLTFGQGTKLEIK . Reported IC50 of GM-CSF release, NCI/ADR-RES cells stimulated with IL-36α?
Result: 0.0202 µg/mL

Origin of the recorded values: patent EP4289863A9
